Source of measurements: patent US7723355B2

MEASURED ON: human DPP-4 (Homo sapiens)
Construct: during isolation the entire transmembrane domain (including His tag) is removed by proteases present in the CHO cells; His tag (enterokinase-cleavable, from pcDNA4/HisMax) (N, cleaved yes)
Sequence (P27487 29-766 limits assumed): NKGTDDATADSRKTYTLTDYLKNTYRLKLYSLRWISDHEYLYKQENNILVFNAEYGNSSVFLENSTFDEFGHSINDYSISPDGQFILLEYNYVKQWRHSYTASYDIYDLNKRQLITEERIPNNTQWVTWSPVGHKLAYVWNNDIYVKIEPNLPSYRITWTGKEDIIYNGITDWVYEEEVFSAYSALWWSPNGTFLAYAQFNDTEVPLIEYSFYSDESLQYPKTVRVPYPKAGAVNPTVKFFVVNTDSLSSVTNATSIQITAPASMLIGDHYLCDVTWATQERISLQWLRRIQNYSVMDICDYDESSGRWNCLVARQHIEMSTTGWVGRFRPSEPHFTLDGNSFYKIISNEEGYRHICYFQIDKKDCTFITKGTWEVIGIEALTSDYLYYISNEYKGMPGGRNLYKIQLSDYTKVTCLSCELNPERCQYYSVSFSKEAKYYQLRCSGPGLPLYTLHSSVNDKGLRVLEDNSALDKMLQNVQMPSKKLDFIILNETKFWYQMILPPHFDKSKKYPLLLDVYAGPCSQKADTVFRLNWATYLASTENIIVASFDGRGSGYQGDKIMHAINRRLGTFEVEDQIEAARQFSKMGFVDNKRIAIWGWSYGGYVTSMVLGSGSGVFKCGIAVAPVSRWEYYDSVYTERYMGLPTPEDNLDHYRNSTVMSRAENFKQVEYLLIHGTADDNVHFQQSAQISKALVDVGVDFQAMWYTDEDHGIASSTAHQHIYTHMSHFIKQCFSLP
EXPERIMENT NOTES: DPP-4 inhibition assay (cleavage of pseudosubstrate Gly-Pro-pNA, absorbance at 405 nm)
PARTICULARS: recombinant human DPP-4, steady state, Gly-Pro-pNA 120 or 1000 μM, pH 7.4, 40 min preincubation; IC50 converted to Ki assuming competitive inhibition; read-out: DPP4 Ki
Structures can show the parent of a compound that is named as a salt.
QUANTITY: pKi
Give bare numbers, as −log10 of the molar value.

Cc1nc2c(c(-c3ccc(Cl)cc3Cl)c1CN)C(=O)N(CC(=O)N1CCCCC1)CC2 [Example 10, TFA salt] | 8.41
Cc1nc2c(c(-c3ccc(Cl)cc3Cl)c1CN)C(=O)NC(=O)C2 [Example 19, TFA Salt] | 8.03

Continue with the next compound.
**Query** What pKi value was documented for this compound, Cc1nc2c(c(-c3ccc(Cl)cc3Cl)c1CN)C(=O)N(CC(=O)N(C)C)CC2 (single isomer, unassigned) [Example 2, TFA salt] ?
**Result** 8.70
